# Test system: T1, activin A (UniProt P08476 311-426)
# T1 construct: also called ActA
# T1 sequence (looked up): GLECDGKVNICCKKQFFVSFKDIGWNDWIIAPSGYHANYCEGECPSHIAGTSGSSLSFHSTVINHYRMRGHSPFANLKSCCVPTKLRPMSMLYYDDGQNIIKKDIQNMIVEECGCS
# Assay protocol: SPR (Biacore); receptor-Fc captured by anti-hFc antibody, ligand injected
Would you kindly list kon for each of these binders?
Answers are plain numbers, in M⁻¹ s⁻¹.

Reference set (2 entries):
{"Binder": "ActRIIB(20-134)-hFc (Fc fusion, also called ActRIIB-hFc) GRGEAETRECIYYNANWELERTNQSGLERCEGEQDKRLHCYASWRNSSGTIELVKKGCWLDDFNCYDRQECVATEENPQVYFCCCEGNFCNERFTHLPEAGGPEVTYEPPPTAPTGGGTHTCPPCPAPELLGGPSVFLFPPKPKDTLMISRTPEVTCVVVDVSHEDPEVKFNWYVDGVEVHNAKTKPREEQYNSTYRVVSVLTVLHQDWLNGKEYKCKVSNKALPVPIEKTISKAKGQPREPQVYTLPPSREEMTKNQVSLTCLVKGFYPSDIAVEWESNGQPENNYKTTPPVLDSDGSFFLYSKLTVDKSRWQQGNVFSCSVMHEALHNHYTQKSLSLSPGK", "Measured parameter": "kon", "Obs value": "5.94e+06"}
{"Binder": "ActRIIB(R64K 20-129)-hFc (Fc fusion) GRGEAETRECIYYNANWELERTNQSGLERCEGEQDKRLHCYASWKNSSGTIELVKKGCWLDDFNCYDRQECVATEENPQVYFCCCEGNFCNERFTHLPEAGGPEVTYEPPGGGTHTCPPCPAPELLGGPSVFLFPPKPKDTLMISRTPEVTCVVVDVSHEDPEVKFNWYVDGVEVHNAKTKPREEQYNSTYRVVSVLTVLHQDWLNGKEYKCKVSNKALPVPIEKTISKAKGQPREPQVYTLPPSREEMTKNQVSLTCLVKGFYPSDIAVEWESNGQPENNYKTTPPVLDSDGSFFLYSKLTVDKSRWQQGNVFSCSVMHEALHNHYTQKSLSLSPGK", "Measured parameter": "kon", "Obs value": "7.46e+06"}

Below: the item to evaluate.
Reported kon for ActRIIB(A24N 20-134)-hFc (Fc fusion) GRGENETRECIYYNANWELERTNQSGLERCEGEQDKRLHCYASWRNSSGTIELVKKGCWLDDFNCYDRQECVATEENPQVYFCCCEGNFCNERFTHLPEAGGPEVTYEPPPTAPTGGGTHTCPPCPAPELLGGPSVFLFPPKPKDTLMISRTPEVTCVVVDVSHEDPEVKFNWYVDGVEVHNAKTKPREEQYNSTYRVVSVLTVLHQDWLNGKEYKCKVSNKALPVPIEKTISKAKGQPREPQVYTLPPSREEMTKNQVSLTCLVKGFYPSDIAVEWESNGQPENNYKTTPPVLDSDGSFFLYSKLTVDKSRWQQGNVFSCSVMHEALHNHYTQKSLSLSPGK : what is it?
3.34e+06
